Each item that follows carries a reported furin cleavage Z-score.
- Target under test: furin, P09958;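 also: purified furin at 1:10 enzyme:substrate in 50 mM HEPES pH 7.5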
- Sequence (P09958 whole entry): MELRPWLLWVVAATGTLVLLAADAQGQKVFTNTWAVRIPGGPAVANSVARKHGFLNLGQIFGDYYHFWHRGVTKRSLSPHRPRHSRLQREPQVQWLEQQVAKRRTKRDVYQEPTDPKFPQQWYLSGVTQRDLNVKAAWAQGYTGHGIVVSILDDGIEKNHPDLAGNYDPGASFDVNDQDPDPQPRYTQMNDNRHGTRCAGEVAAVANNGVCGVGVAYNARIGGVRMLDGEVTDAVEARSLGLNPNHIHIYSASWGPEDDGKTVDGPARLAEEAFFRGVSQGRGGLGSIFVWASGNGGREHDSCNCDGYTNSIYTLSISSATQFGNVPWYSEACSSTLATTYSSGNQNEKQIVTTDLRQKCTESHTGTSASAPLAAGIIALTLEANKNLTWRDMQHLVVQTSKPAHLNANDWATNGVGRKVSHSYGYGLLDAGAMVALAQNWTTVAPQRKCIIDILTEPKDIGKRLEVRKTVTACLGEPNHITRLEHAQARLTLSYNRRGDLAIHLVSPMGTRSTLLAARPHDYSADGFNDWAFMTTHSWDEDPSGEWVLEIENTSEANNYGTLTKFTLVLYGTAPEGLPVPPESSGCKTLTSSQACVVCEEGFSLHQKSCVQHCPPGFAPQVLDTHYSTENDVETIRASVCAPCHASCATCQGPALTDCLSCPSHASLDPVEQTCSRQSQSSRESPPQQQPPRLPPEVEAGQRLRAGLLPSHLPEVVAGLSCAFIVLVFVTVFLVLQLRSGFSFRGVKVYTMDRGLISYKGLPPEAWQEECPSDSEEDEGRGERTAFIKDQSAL
- Assay info: furin cleavage Z-score vs untreated control; higher = more cleavage, active = 3.5 or more, inactive = 1 or less, 8 variable residues between constant flanks
- Experimental conditions: 30 min
Some of the results follow. How many sequences the whole screen found active is unknown.
Just the number, please, no unit after it.

{"Chain": "CAEVPCHRGSAGNASASA [HC2396]", "Reading": 1.87}

Okay, next one:
Ask: Find the measured furin cleavage Z-score of CAIITSLTGRAGNASASA [HC682] and report it.
Reply: 0.0661
